B1: EHEE_rd2_1257 (parent)
chain: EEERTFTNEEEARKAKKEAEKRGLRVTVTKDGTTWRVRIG

variants of: B1; test: folding stability dG (cDNA display proteolysis); higher = more stable; conditions: PBS, room temperature
Classification field. Basis: folding stability dG. Definitions: low band: < 1 kcal/mol; middle band: ≥ 1 kcal/mol and < 2 kcal/mol; high band: ≥ 2 kcal/mol

Which folding stability dG category applies to EEERTFTNEEEARKAKKEARKRGLRVTVTKDGTTWRVRIG [E20R] here?
middle band

Hey, which category is EEERTFTNEEEARKAKKEAGKRGLRVTVTKDGTTWRVRIG [E20G] in, do you know?
low band

Place this variant in its band: AEERTFTNEEEARKAKKEAEKRGLRVTVTKDGTTWRVRIG [E1A]
high band

Category of EEERTFTNEEEARKAKKEAEKRGLRVTVTKTGTTWRVRIG [D31T] , please.
middle band

# bin lookup: classify EEERTFTNEEEARKAKKEAEKRGLRVTITKDGTTWRVRIG [V28I] by its folding stability dG
high band

GET /class?item= EEERTFTNEEEARKAKKEAEKRGLRVTVTKDDTTWRVRIG [G32D]
middle band

Class? Entry: EEWRTFTNEEEARKAKKEAEKRGLRVTVTKDGTTWRVRIG [E3W]
high band

Which class does EEERTFTNEEEARKAAKEAEKRGLRVTVTKDGTTWRVRIG [K16A] fall in?
high band

Lab note: sort EEERTFTNEEEARKAKKEAEKRDLRVTVTKDGTTWRVRIG [G23D] into the matching folding stability dG band.
low band

Sort EEERTFQNEEEARKAKKEAEKRGLRVTVTKDGTTWRVRIG [T7Q] into one of the categories.
middle band

Lab log: EEERTFTNEEEARKAKKEAEKRGLRVTVTKDGTTWRVRIR [G40R] — assign folding stability dG category
high band

Which bin, given its folding stability dG, does EEERTFTNEEEARKAKKEAEKRGLRVTVTKDGTTGRVRIG [W35G] occupy?
low band

Please indicate the class for EEERTFTNEEEARKAKKEAEKRGLRVTVTKDGTTVRVRIG [W35V] based on its folding stability dG.
low band

# bin lookup: classify EEERTFTNEEEARKAKEEAEKRGLRVTVTKDGTTWRVRIG [K17E] by its folding stability dG
high band

Returns: class label. Input: EEERTFTNEEEARKAKKEAEKRGLRVTVTKDGTTWRVFIG [R38F]
high band

Category of EEERTFTNEPEARKAKKEAEKRGLRVTVTKDGTTWRVRIG [E10P] , please.
middle band

Which class does EEERTFTNEEEARKAKKEAEKRGLRVTVTKDGTTWRVRIY [G40Y] fall in?
high band

Lab note: which band did EEERTFTNEEEARKAKKEAEKHGLRVTVTKDGTTWRVRIG [R22H] land in?
middle band

Sort into band: EEERTFTNHEEARKAKKEAEKRGLRVTVTKDGTTWRVRIG [E9H]
middle band

Record EEERTFTNEEEAMKAKKEAEKRGLRVTVTKDGTTWRVRIG [R13M] — which class?
high band

Tag the class for EEERTFTNEEEARKAKKEAEKRGLRVTVTKDGTTQRVRIG [W35Q]
low band

Form: Item = EEERTFTNEEEARKAKKEAEKRGLRVTVTKDGTTWRVRNG [I39N] ; Class = ?
low band

Category lookup for the variant EEERTFTNEEWARKAKKEAEKRGLRVTVTKDGTTWRVRIG [E11W]
middle band

Please indicate the class for EEERTFTNEEEARKAKKEANKRGLRVTVTKDGTTWRVRIG [E20N] based on its folding stability dG.
low band

Where would EEERTFTNECEARKAKKEAEKRGLRVTVTKDGTTWRVRIG [E10C] land among the classes by reported folding stability dG?
high band

Determine which band this variant sits in: EEERTFTNEEEARKAKKEAEKRGLRVTVTKDGTTWWVRIG [R36W]
middle band

Kindly identify the class of EEVRTFTNEEEARKAKKEAEKRGLRVTVTKDGTTWRVRIG [E3V] .
high band

Please indicate the class for EEERTFTNEEEARKAKKEAEKRGLRVTVTKDITTWRVRIG [G32I] based on its folding stability dG.
low band

Which of the defined bands does the recorded folding stability dG of EEERTFTNEEEARKAKKEAEKRGFRVTVTKDGTTWRVRIG [L24F] sit within?
high band

State the band of EEERTFTNEEEARMAKKEAEKRGLRVTVTKDGTTWRVRIG [K14M]
high band

Each variant maps to one class by folding stability dG. Which class for EEERTFTNEEEARKAKMEAEKRGLRVTVTKDGTTWRVRIG [K17M] ?
high band

Which class holds EEERTFTNEEEARKAKKEAEKRGLGVTVTKDGTTWRVRIG [R25G] ?
low band

GET /class?item= EEERTFTNEEEARKIKKEAEKRGLRVTVTKDGTTWRVRIG [A15I]
middle band

Form field 'band' for KEERTFTNEEEARKAKKEAEKRGLRVTVTKDGTTWRVRIG [E1K]
middle band

Could you place EEERTFTNEEEAWKAKKEAEKRGLRVTVTKDGTTWRVRIG [R13W] in its proper category? Many thanks.
high band

State the class of the variant shown: EEERTFTNEWEARKAKKEAEKRGLRVTVTKDGTTWRVRIG [E10W]
high band

Hi, small favor: classify EEERTFTNEEEARKAKKEAEKEGLRVTVTKDGTTWRVRIG [R22E] by its folding stability dG when you get a moment.
middle band

Kindly state the category for this variant: EEEITFTNEEEARKAKKEAEKRGLRVTVTKDGTTWRVRIG [R4I]
high band

Class (by measured folding stability dG) for EEERTFTNEEEARKKKKEAEKRGLRVTVTKDGTTWRVRIG [A15K]
low band

The entry to classify is EEERTFTNEEEARKAKSEAEKRGLRVTVTKDGTTWRVRIG [K17S] ; which class holds it?
high band

Kindly state the category for this variant: FEERTFTNEEEARKAKKEAEKRGLRVTVTKDGTTWRVRIG [E1F]
high band

Assign a category based on measured folding stability dG for EEERTFTNEEEARKAKKEAEKRGLRVTVTKDVTTWRVRIG [G32V] and give only the class name.
low band

Which band does EEERTFTNEEEARKAKKEAEKRGLRVTVTKDGTTWRVNIG [R38N] fall in?
middle band

Sort into band: EEERTFTNEEEARKAKKEGEKRGLRVTVTKDGTTWRVRIG [A19G]
middle band

Category of EEERTFTNEEEARKAKKEAEKRGLRVTVRKDGTTWRVRIG [T29R] , please.
middle band

// return the class label for NEERTFTNEEEARKAKKEAEKRGLRVTVTKDGTTWRVRIG [E1N]
middle band

Given EEERTFTNEEEARKAKKEAEKRGLRVTVTKDGTTWRVRIQ [G40Q] , name the class its folding stability dG places it in.
high band

For EEERTFTNETEARKAKKEAEKRGLRVTVTKDGTTWRVRIG [E10T] , which folding stability dG bin applies?
middle band

// bin(item) where item = EEERTFYNEEEARKAKKEAEKRGLRVTVTKDGTTWRVRIG [T7Y]
high band

For the record EEERTFTNEEEARKAKKIAEKRGLRVTVTKDGTTWRVRIG [E18I] , report the class its folding stability dG corresponds to.
middle band

# bin label for EEERTFTNEEEARKAKKEAEKRGLRVTVTKDGTTWRVRFG [I39F]
middle band

Could you place EEERTFTNEEEARKACKEAEKRGLRVTVTKDGTTWRVRIG [K16C] in its proper category? Many thanks.
high band

Into which bin does this variant go? EEGRTFTNEEEARKAKKEAEKRGLRVTVTKDGTTWRVRIG [E3G]
middle band

Category of EEERTFTNEEEARKAKKEAEKPGLRVTVTKDGTTWRVRIG [R22P] :
low band

The entry to classify is EEPRTFTNEEEARKAKKEAEKRGLRVTVTKDGTTWRVRIG [E3P] ; which class holds it?
low band

Class for EEERTFTNEEEALKAKKEAEKRGLRVTVTKDGTTWRVRIG [R13L] ?
high band

Could you tell me which band EEERTFTNEEESRKAKKEAEKRGLRVTVTKDGTTWRVRIG [A12S] belongs to?
low band

Classify this variant: EEERTFTNEEEARKAKKEAEKRGLRVTVTKDGTTWRVRIP [G40P]
low band

Class for EEERTFTNEEEARKAKKEAETRGLRVTVTKDGTTWRVRIG [K21T] ?
middle band

Would you mind sorting EEERTFTNEEEARKAKREAEKRGLRVTVTKDGTTWRVRIG [K17R] into the appropriate category?
high band

Using the reported folding stability dG, which band applies to EEERTFTNEEEARLAKKEAEKRGLRVTVTKDGTTWRVRIG [K14L] ?
high band

Kindly state the category for this variant: QEERTFTNEEEARKAKKEAEKRGLRVTVTKDGTTWRVRIG [E1Q]
middle band

Could you tell me which band EEERTFTNEEEARKAKKEAEKRGLRVTVTKDGTTTRVRIG [W35T] belongs to?
low band

Which class is correct for the following variant? EEERTFTNEEEARKAKKEAEKRGLRVTVTKDGTIWRVRIG [T34I]
high band

Which bin, given its folding stability dG, does EEERTFTNEEEARKAKKEAEERGLRVTVTKDGTTWRVRIG [K21E] occupy?
high band

Which band does EEERTFTNEEEARKAKKEAEKRGLRVTVTKWGTTWRVRIG [D31W] fall in?
middle band

Which category does the recorded folding stability dG put EEERTFTNEEEARKAKKEAEKRGLRVTVTKDRTTWRVRIG [G32R] in?
low band

Into which category would you place EEERTFTNWEEARKAKKEAEKRGLRVTVTKDGTTWRVRIG [E9W] ?
high band

Which category fits this record: EEELTFTNEEEARKAKKEAEKRGLRVTVTKDGTTWRVRIG [R4L]
high band

Field: class (folding stability dG) — entry: EEERTFTNEEEARKAKKEAEKRGLRVTVTKDGTTIRVRIG [W35I]
middle band

Hello team, could you let me know which band the following variant falls into: DEERTFTNEEEARKAKKEAEKRGLRVTVTKDGTTWRVRIG [E1D]
high band

Hi there! Could you help me figure out the category for EEERTFTNEEEAFKAKKEAEKRGLRVTVTKDGTTWRVRIG [R13F] please?
high band

Assign a category based on measured folding stability dG for EWERTFTNEEEARKAKKEAEKRGLRVTVTKDGTTWRVRIG [E2W] and give only the class name.
high band

Bin? EEERTWTNEEEARKAKKEAEKRGLRVTVTKDGTTWRVRIG [F6W]
low band

Class (by measured folding stability dG) for EEERTFTNEEEARKAKKEAEKRGLRVTVTKDGTVWRVRIG [T34V]
high band

Tag the class for EEERTMTNEEEARKAKKEAEKRGLRVTVTKDGTTWRVRIG [F6M]
low band

State the band of EEERTFTNEEEARKAKKEAEKRSLRVTVTKDGTTWRVRIG [G23S]
low band

Bin? EEERTFTNEEEARKAKKEAEKVGLRVTVTKDGTTWRVRIG [R22V]
middle band

Which class holds EEERTFTNEEEARTAKKEAEKRGLRVTVTKDGTTWRVRIG [K14T] ?
middle band

Note: place this variant into its band. Item: EEERTFTNEEEARKAKKEAEKRGLRVTVSKDGTTWRVRIG [T29S]
middle band

Kindly state the category for this variant: EEERTFTNEEEAAKAKKEAEKRGLRVTVTKDGTTWRVRIG [R13A]
middle band

Please classify: EEERTFTNEEEAVKAKKEAEKRGLRVTVTKDGTTWRVRIG [R13V]
high band

Quick check: band for EEERTFTNEELARKAKKEAEKRGLRVTVTKDGTTWRVRIG [E11L]
middle band

Please indicate the class for EEERTFTNEEEARKAKKEAEKRGLRVTVQKDGTTWRVRIG [T29Q] based on its folding stability dG.
middle band

Please let me know in which category the item EIERTFTNEEEARKAKKEAEKRGLRVTVTKDGTTWRVRIG [E2I] belongs.
high band

Categorize the following entry: EEERTFTNEEGARKAKKEAEKRGLRVTVTKDGTTWRVRIG [E11G]
middle band

Data provenance is the MegaScale stability set (Tsuboyama et al. 2023).
